# testName: Microsomal stability assay, mouse liver microsomes
# Format: in vitro ADME, mouse (male CD-1)
# measurementParameters: predicted from Clint, Qh 90 mL/min/kg
# Clhep (hepatic clearance), Mouse listing for each entry below
Record the value in mL/min/kg body weight, omitting the unit from your answer.

Some solved cases for reference:
[2H]c1c([2H])c([2H])c(-c2ccc([C@H](Cn3ccnc3)NC(=O)c3ccc(-c4nnc(-c5ccccc5)o4)cc3)c(Cl)c2)c([2H])c1[2H] [Compound 5] = 63.9
O=C(N[C@@H](Cn1ccnc1)c1ccc(-c2ccc(F)cc2)cc1Cl)c1ccc(-c2nnc(-c3ccccc3)o2)cc1 [VFV-Cl] = 35.9
O=C(N[C@@H](Cn1ccnc1)c1ccc(-c2ccc(F)cc2)cc1Cl)c1ccc(-c2nnc(-c3ccccn3)o2)cc1 [Compound 2] = 48.4
O=C(N[C@@H](Cn1ccnc1)c1ccc(Cl)cc1Cl)c1ccc(-c2nnc(-c3ccc(OCC(F)(F)F)cc3F)o2)cc1 [Compound 8] = 44.4
O=C(N[C@@H](Cn1ccnc1)c1ccc(Cl)cc1Cl)c1ccc(-c2nnc(-c3ccc(F)c(F)c3)o2)cc1 [Compound 9] = 34.5

The recorded Clhep (hepatic clearance), Mouse for O=C(N[C@@H](Cn1ccnc1)c1c(F)cc(-c2ccc(F)cc2)cc1F)c1ccc(-c2nnc(-c3ccccc3)o2)cc1 [Compound 7] is 65.2

###

Known Clint (estimated intrinsic clearance), Rat of a selection of compounds
# testName: Microsomal stability assay, rat liver microsomes
# Format: in vitro ADME, rat (male Sprague-Dawley)
# measurementParameters: rat pooled liver microsomes 0.5 mg/mL, 1 μM test compound
Enter your answer as a number in mL/min/kg body weight; do not include the unit.

O=C(N[C@@H](Cn1ccnc1)c1ccc(-c2ccc(F)cc2)cc1Cl)c1ccc(-c2nnc(-c3ccccc3)o2)cc1 = 35.5

Value of measured Clint (estimated intrinsic clearance), Rat for the entry `O=C(N[C@@H](Cn1ccnc1)c1ccc(Cl)cc1Cl)c1ccc(-c2nnc(-c3ccc(F)c(F)c3)o2)cc1` : 30.9

# compound `O=C(N[C@@H](Cn1ccnc1)c1ccc(-c2ccc(F)cc2)cc1Cl)c1ccc(-c2nnc(-c3ccccn3)o2)cc1` ; its Clint (estimated intrinsic clearance), Rat = 29.7

The compound identified as `O=C(N[C@@H](Cn1ccnc1)c1ccc(-c2ccccc2)cc1Cl)c1ccc(-c2nnc(-c3ccccc3)o2)cc1` registered its Clint (estimated intrinsic clearance), Rat at 142

Reported Clint (estimated intrinsic clearance), Rat of `O=C(N[C@@H](Cn1ccnc1)c1c(F)cc(-c2ccc(F)cc2)cc1F)c1ccc(-c2nnc(-c3ccccc3)o2)cc1` : 55.8
